Tgt: PCSK9 (Homo sapiens, UniProt Q8NBP7)
Construct: biotin (biotinylated); purchased
Sequence (Q8NBP7 153-692): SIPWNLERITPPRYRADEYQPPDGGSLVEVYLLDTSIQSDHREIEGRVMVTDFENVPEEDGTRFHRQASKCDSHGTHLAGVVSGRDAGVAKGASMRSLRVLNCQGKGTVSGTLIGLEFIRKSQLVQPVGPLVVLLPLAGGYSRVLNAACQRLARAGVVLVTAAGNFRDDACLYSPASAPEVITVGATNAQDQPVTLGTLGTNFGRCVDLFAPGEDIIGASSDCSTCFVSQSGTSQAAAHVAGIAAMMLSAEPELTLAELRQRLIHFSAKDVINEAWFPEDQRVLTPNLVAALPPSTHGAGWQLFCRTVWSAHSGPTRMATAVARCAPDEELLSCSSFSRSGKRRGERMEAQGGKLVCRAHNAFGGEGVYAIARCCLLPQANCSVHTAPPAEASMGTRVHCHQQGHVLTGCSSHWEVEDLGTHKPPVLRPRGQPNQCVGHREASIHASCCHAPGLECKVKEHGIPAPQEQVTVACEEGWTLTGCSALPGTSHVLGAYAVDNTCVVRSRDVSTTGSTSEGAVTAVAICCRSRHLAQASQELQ
Procedure text: PCSK9 Alexa FRET Plus TR-FRET assay
Assay type: binding
Reported conditions: biotinylated PCSK9 0.5 nM, 960 nM AF cyclic peptide Reagent B; Ki calculated from IC50 and KD of AF peptide
Observable: Ki (nM)
Give the quantity in nM, number only.

Query smiles | Ki, nM
COc1ccc(C[C@@H]2NC(=O)[C@H]([C@@H](C)O)NC(=O)[C@@H]3[C@@H]4CCN3C(=O)[C@@H]3Cc5cn(c6ccc(F)cc56)Cc5cn(nn5)Cc5cc(ccc5CNC(=O)CCCCCC(=O)N[C@H](CNC(=O)CCOCCOCC[N+](C)(C)CCNC(=O)COCCOCCNC(=O)COCCOCCNC(=O)CC[C@@H](NC(=O)CC[C@@H](NC(=O)CCCCCCCCCCCCCCCCC(=O)O)C(=O)O)C(=O)O)C(=O)N[C@@H](Cc5cccc(c5)C/C=C/CO4)C(=O)N3)CCNC(=O)[C@]3(C)CCCN3C2=O)cc1 | 0.082
COc1ccc(C[C@@H]2NC(=O)[C@H]([C@@H](C)O)NCC(=O)[C@@H]3[C@@H]4CCN3C(=O)[C@@H]3Cc5cn(c6ccc(F)cc56)Cc5cn(nn5)Cc5cc(ccc5CNC(=O)CCCCCC(=O)N[C@H](CNC(=O)CCOCCOCC[N+](C)(C)CCOCCNC(=O)COCCOCCNC(=O)COCCOCCNC(=O)CC[C@H](NC(=O)CC[C@H](NC(=O)CCCCCCCCCCCCCCC(=O)O)C(=O)O)C(=O)O)C(=O)N[C@@H](Cc5cccc(c5)C/C=C/CO4)C(=O)N3)CCNC(=O)[C@]3(C)CCCN3C2=O)cc1 | 0.037

**Q:** System PCSK9 (Homo sapiens, UniProt Q8NBP7). Read-out Ki. Item COc1ccc(C[C@@H]2NC(=O)[C@H]([C@@H](C)O)NC(=O)[C@@H]3[C@@H]4CCN3C(=O)[C@@H]3Cc5cn(c6ccc(F)cc56)Cc5cn(nn5)Cc5cc(ccc5CNC(=O)CCCCCC(=O)N[C@H](CNC(=O)CCOCCOCC[N+](C)(C)CCNC(=O)COCCOCCNC(=O)COCCOCCNC(=O)CC[C@H](NC(=O)CC[C@H](NC(=O)CCCCCCCCCCCCCCCCC(=O)O)C(=O)O)C(=O)O)C(=O)N[C@@H](Cc5cccc(c5)C/C=C/CO4)C(=O)N3)CCNC(=O)[C@]3(C)CCCN3C2=O)cc1 . Report value.
**A:** 0.049
